Exercise: state measured percentage damage caused to the plant, five point scale, AMARE for each of the molecules provided.
Test system: Amaranthus retoflexus (AMARE)
assay.details: B3 Pre-Emergence Efficacy Test 1
Assay type: in vivo
study.conditions: 250 g/ha, after 13 days

Provide measured percentage damage caused to the plant, five point scale, AMARE value, entry: Cc1nn(C)c(=O)c(-c2c(F)ccc(Cl)c2/C=C/c2ccc3c(c2)OC(F)(F)O3)c1OC(=O)C(C)C
1 (1=0-19%)

Provide measured percentage damage caused to the plant, five point scale, AMARE value, entry: Cc1nn(C)c(=O)c(-c2c(F)ccc(Cl)c2CCc2ccc3c(c2)CCC(C)N3)c1OC(=O)C(C)C (stereo not drawn)
5 (5=80-100%)

Provide measured percentage damage caused to the plant, five point scale, AMARE value, entry: Cc1ccc2cc(/C=C/c3c(Cl)ccc(F)c3-c3c(OC(=O)C(C)C)c(C)nn(C)c3=O)ccc2n1
0

Provide measured percentage damage caused to the plant, five point scale, AMARE value, entry: Cc1nn(C)c(=O)c(-c2c(F)ccc(Cl)c2CCc2cc(C(F)(F)F)nc3ccccc23)c1O
1 (1=0-19%)

Provide measured percentage damage caused to the plant, five point scale, AMARE value, entry: Cc1ccc2cc(/C=C/c3c(Cl)ccc(F)c3-c3c(O)c(C)nn(C)c3=O)ccc2n1
1 (1=0-19%)

Provide measured percentage damage caused to the plant, five point scale, AMARE value, entry: Cc1nn(C)c(=O)c(-c2c(F)ccc(Cl)c2CCc2ccc3c(c2)CCCN3)c1O
5 (5=80-100%)

Provide measured percentage damage caused to the plant, five point scale, AMARE value, entry: Cc1ccc2cc(CCc3c(Cl)ccc(F)c3-c3c(OC(=O)C(C)C)c(C)nn(C)c3=O)ccc2n1
5 (5=80-100%)

Provide measured percentage damage caused to the plant, five point scale, AMARE value, entry: Cc1nn(C)c(=O)c(-c2c(F)ccc(Cl)c2CCc2ccnc3ccccc23)c1O
5 (5=80-100%)

Provide measured percentage damage caused to the plant, five point scale, AMARE value, entry: CCc1nc2ccc(CCc3c(Cl)ccc(F)c3-c3c(O)c(C)nn(C)c3=O)cc2o1
5 (5=80-100%)

---

Exercise: state measured percentage damage caused to the plant, five point scale, AMARE for each of the molecules provided.
Tested on: Amaranthus retoflexus (AMARE)
assay.details: B1 Post-Emergence Efficacy Test 1
Format: in vivo
study.conditions: 250 g/ha, after 13 days
Experimental: Seeds of a variety of test species are sown in standard soil in pots:— Solanum nigrum (SOLNI), Amaranthus retoflexus (AMARE), Setaria faberi (SETFA), Echinochloa crus-galli (ECHCG), Ipomoea hederacea (IPOHE), Lolium perenne (LOLPE). […] After 13 days, the test is evaluated for the percentage damage caused to the plant. The biological activities are assessed on a five point scale (5=80-100%; 4=60-79%; 3=40-59%; 2=20-39%; 1=0-19%). […]

Name the value of percentage damage caused to the plant, five point scale, AMARE reported for Cc1ccc2cc(/C=C/c3c(Cl)ccc(F)c3-c3c(O)c(C)nn(C)c3=O)ccc2n1 [Compound 2.034] when tested on Amaranthus retoflexus (AMARE).
1 (1=0-19%)

Name the value of percentage damage caused to the plant, five point scale, AMARE reported for Cc1nn(C)c(=O)c(-c2c(F)ccc(Cl)c2/C=C/c2ccc3c(c2)OC(F)(F)O3)c1OC(=O)C(C)C [Compound 4.342] when tested on Amaranthus retoflexus (AMARE).
0

Name the value of percentage damage caused to the plant, five point scale, AMARE reported for Cc1nn(C)c(=O)c(-c2c(F)ccc(Cl)c2CCc2cc(C(F)(F)F)nc3ccccc23)c1O [Compound 1.027] when tested on Amaranthus retoflexus (AMARE).
2 (2=20-39%)

Name the value of percentage damage caused to the plant, five point scale, AMARE reported for Cc1ccc2cc(CCc3c(Cl)ccc(F)c3-c3c(OC(=O)C(C)C)c(C)nn(C)c3=O)ccc2n1 [Compound 3.034] when tested on Amaranthus retoflexus (AMARE).
4 (4=60-79%)

Name the value of percentage damage caused to the plant, five point scale, AMARE reported for Cc1nn(C)c(=O)c(-c2c(F)ccc(Cl)c2CCc2ccc3c(c2)CCC(C)N3)c1OC(=O)C(C)C (stereo not shown) [Compound 3.030] when tested on Amaranthus retoflexus (AMARE).
5 (5=80-100%)

Name the value of percentage damage caused to the plant, five point scale, AMARE reported for CCc1nc2ccc(CCc3c(Cl)ccc(F)c3-c3c(O)c(C)nn(C)c3=O)cc2o1 [Compound 1.028] when tested on Amaranthus retoflexus (AMARE).
5 (5=80-100%)

Name the value of percentage damage caused to the plant, five point scale, AMARE reported for Cc1nn(C)c(=O)c(-c2c(F)ccc(Cl)c2CCc2ccnc3ccccc23)c1O [Compound 1.036] when tested on Amaranthus retoflexus (AMARE).
5 (5=80-100%)

Name the value of percentage damage caused to the plant, five point scale, AMARE reported for Cc1ccc2cc(/C=C/c3c(Cl)ccc(F)c3-c3c(OC(=O)C(C)C)c(C)nn(C)c3=O)ccc2n1 [Compound 4.034] when tested on Amaranthus retoflexus (AMARE).
1 (1=0-19%)

Name the value of percentage damage caused to the plant, five point scale, AMARE reported for Cc1nn(C)c(=O)c(-c2c(F)ccc(Cl)c2CCc2ccc3c(c2)CCCN3)c1O [Compound 1.019] when tested on Amaranthus retoflexus (AMARE).
4 (4=60-79%)

Name the value of percentage damage caused to the plant, five point scale, AMARE reported for Cc1nn(C)c(=O)c(-c2c(F)ccc(Cl)c2CCc2ccc3c(c2)CC(=O)N3)c1O [Compound 1.357] when tested on Amaranthus retoflexus (AMARE).
5 (5=80-100%)
